molecular target: IL-18BP (human); experiment: BLI
quantity measured: binding result

- IL18R_tanVHHα2β15 (antibody, V domains shown) V domain 1: DVQLQESGGGLVQAGGSLRLSCAASGFTLLDSYDIGWFRQAPGKKREEVSCISSSGGKSTYYADSVKGRFTISRDNANNTVYLQMNSLKPEDTAVYYCAADGAEGFWSCQSGGYDYWGQGTQVTVSS V domain 2: DVQLQESGGGLVQPGGSLRLSCAASGRFFTINAMGWYRQTPGKQRELVAAITSDGSTTYQDSVKGRFTISRDNANRTANLYMNSLKSEDTAVYYCNADGRFNDNGYVKNFNIWGQGTQVTVSS: no binding
- IL18R_VHHα2β15 (antibody, V domains shown) V domain 1: DVQLQESGGGLVQAGGSLRLSCAASGFTLLDSYDIGWFRQAPGKKREEVSCISSSGGKSTYYADSVKGRFTISRDNANNTVYLQMNSLKPEDTAVYYCAADGAEGFWSCQSGGYDYWGQGTQVTVSS V domain 2: DVQLQESGGGLVQPGGSLRLSCAASGRFFTINAMGWYRQTPGKQRELVAAITSDGSTTYQDSVKGRFTISRDNANRTANLYMNSLKSEDTAVYYCNADGRFNDNGYVKNFNIWGQGTQVTVSS: no binding
- IL18R_VHHα8β15 (antibody, V domains shown) V domain 1: DVQLQESGGGLVQAGGSLRLSCAASGRTFSNDAMGWFRQAPGKEREFVAAVSWSLGMTYNADSVKGRFTISRDNAKNTVYLQMNSLKPDDTAVYYCAAGPDLSDELYGYDYWGQGTQVTVSS V domain 2: DVQLQESGGGLVQPGGSLRLSCAASGRFFTINAMGWYRQTPGKQRELVAAITSDGSTTYQDSVKGRFTISRDNANRTANLYMNSLKSEDTAVYYCNADGRFNDNGYVKNFNIWGQGTQVTVSS: no binding
